Source of measurements: patent US20190119282A1

# SYSTEM_UNDER_TEST: PAR2 (HT-29 cells, trypsin activation) (Homo sapiens, UniProt P55085)
# Construct: host or cells: HT-29 cells
# Sequence (P55085 26-397): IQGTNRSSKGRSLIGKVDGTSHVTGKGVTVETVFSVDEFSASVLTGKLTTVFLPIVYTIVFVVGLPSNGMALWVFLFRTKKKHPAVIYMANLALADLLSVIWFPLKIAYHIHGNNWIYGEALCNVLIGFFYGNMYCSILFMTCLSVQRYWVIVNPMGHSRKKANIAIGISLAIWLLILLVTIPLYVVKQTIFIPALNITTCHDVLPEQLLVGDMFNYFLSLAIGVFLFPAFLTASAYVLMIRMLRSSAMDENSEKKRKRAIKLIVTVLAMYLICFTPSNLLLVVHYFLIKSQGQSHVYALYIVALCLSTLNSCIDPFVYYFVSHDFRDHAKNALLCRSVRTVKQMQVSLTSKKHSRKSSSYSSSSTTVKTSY
# MEASUREMENT_DESCRIPTION: Ca FLIPR TETRA assay, ANTAGONIST mode, stimulation with 3.1 U/mL trypsin
# Type: cell-based
# STUDY_CONDITIONS: HT-29 cells, stimulation with 3.1 U/mL trypsin
MEASUREMENT_TYPE: IC50 (nM)
# output: bare number, implied unit nM

Below: 4 molecules and their reported IC50.
{"MOLECULE": "CC1(C)C(=O)NCCN1C(=O)c1cn2nc(-c3ccc(F)cc3)cc(C(F)(F)F)c2n1", "IC50 [nM]": 62}
{"MOLECULE": "O=C(OCc1ccccc1)N1CCN(C(=O)c2cn3nc(-c4ccc(F)cc4)cc(C(F)(F)F)c3n2)CC1", "IC50 [nM]": 21000}
{"MOLECULE": "Cc1noc(C2CCCCN2C(=O)c2cn3nc(-c4ccc(F)cc4)cc(C(F)(F)F)c3n2)n1 (centres unmarked)", "IC50 [nM]": 1500}
{"MOLECULE": "C[C@H]1CN(C(=O)c2cn3nc(-c4ccc(F)cc4)cc(C(F)(F)F)c3n2)CCN1C(=O)[C@H](N)CC1CCCCC1", "IC50 [nM]": 280}

Req: // query IC50 value for entry CC(C)c1cc(-c2ccc(F)cc2)nn2cc(C(=O)N3CCN(C(=O)[C@H](O)c4ccccc4Cl)[C@@H](C)C3)nc12
Resp: 1

Req: So what's the measured IC50 for this one? CC(C)c1cc(-c2ccc(F)cc2)nn2cc(C(=O)N3CCN(C(=O)C4(O)CCC4)CC3(C)C)nc12
Resp: 56

Req: Could you share which IC50 value was measured for Cc1cc(-c2ccc(F)cc2)nn2cc(C(=O)N3CCN(C(=O)[C@H](O)C(C)(C)C)[C@@H](C)C3)nc12 ?
Resp: 1450

---

# SYSTEM_UNDER_TEST: PAR2 (HT-29 cells, SLIGKV activation) (Homo sapiens)
# Construct: host or cells: HT-29 cells
# Sequence (P55085 26-397): as above
# MEASUREMENT_DESCRIPTION: Ca FLIPR TETRA assay, ANTAGONIST mode, stimulation with 8 μM SLIGKV
# Assay type: cell-based
# STUDY_CONDITIONS: HT-29 cells, stimulation with 8 μM SLIGKV
Parameter: IC50. Scope: all listed entries.
Write the number in nM without appending the unit.

{"COMPOUND": "CC(C)c1cc(-c2ccc(F)cc2)nn2cc(C(=O)N3CCN(C(=O)C4(N)CC4)[C@@H](C)C3)nc12 [Compound I-154]", "MEASUREMENT_TYPE": "IC50", "MEASUREMENT": 1400}

Req: Can you look up the measured IC50 of CC(C)c1cc(-c2ccc(F)cc2)nn2cc(C(=O)N3CCN(C(=O)C4(O)CCC4)C[C@H]3C)nc12 [Compound I-178] for me?
Resp: 4800

Req: Entry C[C@H]1CN(C(=O)c2cn3nc(-c4ccc(F)cc4)cc(C(F)(F)F)c3n2)CCN1C(=O)OCc1cccnc1 [Compound I-12] : reported IC50 = ?
Resp: 84

Req: IC50 for CC(C)C(O)C(=O)N1CCN(C(=O)c2cn3nc(-c4ccc(F)cc4)cc(C(F)(F)F)c3n2)C[C@@H]1C (some centres unmarked) [Compound I-91] ?
Resp: 69

Req: Look at this compound and give its reported IC50. O=C(c1cn2nc(-c3ccc(F)cc3)cc(C(F)(F)F)c2n1)N1CCCCCC1 [Compound I-7]
Resp: 89

Req: Quick one: IC50 of CC(C)c1cc(-c2ccc(F)cc2)nn2cc(C(=O)N3CCN(C(=O)C(O)c4ccc(F)cc4)[C@@H](C)C3)nc12 (some centres unmarked) [Compound I-108] ?
Resp: 0.7

---

Recorded pIC50 by entry
# SYSTEM_UNDER_TEST: PAR2 (HT-29 cells, trypsin activation) (Homo sapiens)
# Construct: host or cells: HT-29 cells
# MEASUREMENT_DESCRIPTION: Ca FLIPR TETRA assay, ANTAGONIST mode, stimulation with 3.1 U/mL trypsin
# Assay type: cell-based
# STUDY_CONDITIONS: HT-29 cells, antagonist mode, stimulation with 3.1 U/mL trypsin
Expect pIC50 as a plain number equal to -log10 of the molar concentration.

Answered cases to consult:
{"MOLECULE": "Cc1cc(-c2cc(C(C)(C)C)c3nc(C(=O)N4CCNC(=O)C4(C)C)cn3n2)ccc1F [Compound I-329]", "pIC50": 8.55}
{"MOLECULE": "Cc1cccc(-c2cc(C(C)(C)C)c3nc(C(=O)N4CCN(C(=O)c5ncccn5)CC4(C)C)cn3n2)c1 [Compound I-412]", "pIC50": 8.00}
{"MOLECULE": "CC(C)(C)c1cc(-c2ccc(Cl)cc2)nn2cc(C(=O)N3CCNC(=O)C3(C)C)nc12 [Compound I-361]", "pIC50": 8.66}

Req: What value of pIC50 on PAR2 (HT-29 cells, trypsin activation) (Homo sapiens) does CC(C)c1cc(-c2ccc(OC(F)(F)F)cc2)nn2cc(C(=O)N3CCN(C(=O)C(C)(C)O)CC3(C)C)nc12 [Compound I-219] have?
Resp: 6.44

Req: So what pIC50 did Cc1ccc(-c2cc(C(C)(C)C)c3nc(C(=O)N4CCN(C(=O)c5ncccn5)CC4(C)C)cn3n2)cc1F [Compound I-426] get with PAR2 (HT-29 cells, trypsin activation) (Homo sapiens)?
Resp: 8.74

Req: Request body: readout pIC50, system PAR2 (HT-29 cells, trypsin activation) (Homo sapiens), query CN(C)C(=O)CN1CCN(C(=O)c2cn3nc(-c4ccc(F)cc4)cc(C(C)(C)C)c3n2)C(C)(C)C1=O [Compound I-194] . Return the value.
Resp: 7.39

Req: Missing value: pIC50, PAR2 (HT-29 cells, trypsin activation) (Homo sapiens), entry Cc1cc(C(=O)N2CCN(C(=O)c3cn4nc(-c5ccc(C(F)(F)F)cc5)cc(C(C)(C)C)c4n3)C(C)(C)C2)[nH]n1 [Compound I-402] . Fill in?
Resp: 9.00

Req: Enter reported pIC50 observed with PAR2 (HT-29 cells, trypsin activation) (Homo sapiens) for Cc1ncc(C(=O)N2CCN(C(=O)c3cn4nc(-c5ccc(F)c(Cl)c5)cc(C(C)(C)C)c4n3)C(C)(C)C2)[nH]1 [Compound I-467]
Resp: 8.70

Req: Hi! What's the reported pIC50 for CC(C)(C)c1cc(-c2ccc(F)cc2)nn2cc(C(=O)N3CCN(C(=O)c4c[nH]cn4)CC3(C)C)nc12 [Compound I-232] on PAR2 (HT-29 cells, trypsin activation) (Homo sapiens)?
Resp: 8.85

Req: Form: Entry = Cc1ccc(-c2cc(C(C)C)c3nc(C(=O)N4CCNC(=O)C4(C)C)cn3n2)cc1Cl [Compound I-508] | System = PAR2 (HT-29 cells, trypsin activation) (Homo sapiens) | pIC50 = ____
Resp: 8.39

Req: Param readout= pIC50; system= PAR2 (HT-29 cells, trypsin activation) (Homo sapiens); entry= Cc1nnc(C(=O)N2CCN(C(=O)c3cn4nc(-c5ccc(Cl)cc5)cc(C(C)(C)C)c4n3)C(C)(C)C2)o1 [Compound I-443] ; returns value.
Resp: 8.92

Req: Could you share what pIC50 was measured for Cc1nc(C(=O)N2CCN(C(=O)c3cn4nc(-c5ccc(Cl)cc5)cc(C(C)(C)C)c4n3)C(C)(C)C2)n[nH]1 [Compound I-436] , tested on PAR2 (HT-29 cells, trypsin activation) (Homo sapiens)?
Resp: 9.40

Req: Lookup: pIC50 / PAR2 (HT-29 cells, trypsin activation) (Homo sapiens) / Cc1ccc(-c2cc(C(C)C)c3nc(C(=O)N4CCN(C(=O)C5CC(C)(O)C5)CC4(C)C)cn3n2)cc1 (stereo not drawn) [Compound I-333]
Resp: 8.42

Req: API: value(readout= pIC50, system= PAR2 (HT-29 cells, trypsin activation) (Homo sapiens), query= CC(C)c1cc(-c2ccc(F)c(F)c2)nn2cc(C(=O)N3CCN(C(=O)[C@H]4C[C@](O)(C(F)(F)F)C4)CC3(C)C)nc12 [Compound I-257] )
Resp: 9.70

Req: Observed pIC50 on PAR2 (HT-29 cells, trypsin activation) (Homo sapiens) for CC(C)(C)c1cc(-c2ccc(F)cc2)nn2cc(C(=O)N3CCN(C(=O)c4n[nH]c(=O)[nH]4)CC3(C)C)nc12 [Compound I-357] , please.
Resp: 8.36

Req: API: value(readout=pIC50, system=PAR2 (HT-29 cells, trypsin activation) (Homo sapiens)) for record CC(C)(C)c1cc(-c2ccc(F)c(Cl)c2)nn2cc(C(=O)N3CCN(C(=O)c4ncccn4)CC3(C)C)nc12 [Compound I-464]
Resp: 8.66

Req: Provide the documented pIC50 with PAR2 (HT-29 cells, trypsin activation) (Homo sapiens) as the system for Cc1cc(-c2cc(C(C)(C)C)c3nc(C(=O)N4CCN(c5cn[nH]c5)C(=O)C4(C)C)cn3n2)ccc1F [Compound I-417]
Resp: 8.49

Req: Give PAR2 (HT-29 cells, trypsin activation) (Homo sapiens) pIC50 for Cc1n[nH]c(C(=O)N2CCN(C(=O)c3cn4nc(-c5ccc(Br)cc5)cc(C(C)(C)C)c4n3)C(C)(C)C2)n1 [Compound I-519]
Resp: 9.40

Req: Form entry - test system: PAR2 (HT-29 cells, trypsin activation) (Homo sapiens); read-out: pIC50; molecule: Cc1cc(-c2cc(C(C)C)c3nc(C(=O)N4CCNC(=O)C4(C)C)cn3n2)ccc1Cl [Compound I-507]
Resp: 8.31

Req: Report pIC50 for Cn1nnc(N2CCN(C(=O)c3cn4nc(-c5ccc(F)cc5)cc(C(C)(C)C)c4n3)C(C)(C)C2=O)n1 [Compound I-249] tested on PAR2 (HT-29 cells, trypsin activation) (Homo sapiens).
Resp: 9.15

Req: Query pIC50 on PAR2 (HT-29 cells, trypsin activation) (Homo sapiens) for COC(=O)C12CC(C(=O)N3CCN(C(=O)c4cn5nc(-c6ccc(F)cc6)cc(C(C)(C)C)c5n4)C(C)(C)C3)(C1)C2 [Compound I-530]
Resp: 8.66

Req: Item CC(C)c1cc(-c2ccc(F)cc2)nn2cc(C(=O)N3CCN(C(=O)c4ccncn4)CC3(C)C)nc12 [Compound I-236] with PAR2 (HT-29 cells, trypsin activation) (Homo sapiens) - pIC50?
Resp: 7.73

Req: Notebook: pull reported pIC50 for PAR2 (HT-29 cells, trypsin activation) (Homo sapiens), entry CC(C)c1cc(-c2ccccc2F)nn2cc(C(=O)N3CCNC(=O)C3(C)C)nc12 [Compound I-479]
Resp: 6.60
